System: OVCAR-3 ovarian
Test: NCI-60 one-dose screen, 48 h
Settings: 10 µM unless noted
Description: Growth inhibition of the OVCAR-3 human tumor cell line is measured as a screen for anti-cancer activity. Cells are grown in 96 well plates and exposed to the test compound for 48 hours. Compounds are tested at a single concentration, which is 10^-5 M for most compounds. The reported endpoint is percent growth (GI% or GIPRCNT), where numbers from 0 - 100% represent growth inhibition, and numbers from -100% - 0 represent cell death. For example, a value of 40 represents 60% growth inhibition. […]
About 83,000 compounds went through this panel and 20% of them were active in at least one assay; those are over-represented in the sample as a whole. Active and inactive are the calls of the source. The calls were made as follows: active = growth percent below 10; inactive = the rest.
Outcomes: T for active, F for inactive

MOLECULE	TEST_SYSTEM	CATEGORY_LABEL
CC(=O)Nc1ccc2c(c1)c(NC(C)=O)nn2C(=O)Nc1ccc(Cc2ccccc2)cc1	OVCAR-3 ovarian	F
COc1cc(NCCCCN=C(N)N)c2ncccc2c1	OVCAR-3 ovarian	T
O=c1ccc2cc3ccccc3cc2[nH]1	OVCAR-3 ovarian	F
CCC(c1ccccc1)C(CC)c1ccc(O)c(O)c1 (configuration not stated)	OVCAR-3 ovarian	F
CC1=NNC(=O)C1C (configuration not stated)	OVCAR-3 ovarian	F
CC(=O)OC1Oc2cc(C)c(C)cc2-c2oc(=O)c(-c3cc4ccc(N(C)C)cc4oc3=O)cc21 (configuration not stated)	OVCAR-3 ovarian	F
c1ccc(-c2nc(N3CCOCC3)c3c4c(sc3n2)CCCCC4)nc1	OVCAR-3 ovarian	F
C=C1CCC2C3(C)COC(c4ccc(OC)cc4Br)OC3CCC2(C)C1/C=C/C1=CCOC1=O (configuration not stated)	OVCAR-3 ovarian	F
Cc1ccc(NC(=O)c2sc3nc4c(cc3c2N)C(=O)CCC4)cc1C	OVCAR-3 ovarian	T
O=C(N/N=C/c1ccc(O)cc1O)c1cccnc1	OVCAR-3 ovarian	F
CCOC(=O)/C=C/C(=O)[C@H](CC(C)C)NC(=O)[C@H](Cc1ccccc1)NC(=O)OCc1ccccc1	OVCAR-3 ovarian	F
CCCCN(CCCC)CCC(C)(O)c1cc2ccccc2c2ccccc12 (configuration not stated)	OVCAR-3 ovarian	F
COc1ccc2c(c1)C(=O)/C(=C/c1cccc(OCC(=O)Nc3nc4c(s3)CCCC4)c1)O2	OVCAR-3 ovarian	T
CCCCCCCCCCCCCC(=O)C(C)N (configuration not stated)	OVCAR-3 ovarian	F
COCCCN=C(N)c1ccc(NC(=O)c2ccc(C(=O)Nc3ccc(C(N)=NCCCOC)cc3)cc2)cc1	OVCAR-3 ovarian	F
CN1C2CCC1/C(=C\c1ccc(Cl)cc1)C1=C2[C@@H](c2ccc(Cl)cc2)C(C#N)=C(N)O1 (some centres not stated)	OVCAR-3 ovarian	F
Cc1ccc(C2CC3c4ccccc4C2C2CCCCN32)cc1 (configuration not stated)	OVCAR-3 ovarian	F
ClC1=C2NC=NC2n2c(nnc2-c2ccc(Cl)cc2)N1 (configuration not stated)	OVCAR-3 ovarian	F
Cn1cc(-c2ccc(-c3cn(C)c4ncccc34)[nH]2)c2cccnc21	OVCAR-3 ovarian	T
COc1ccc(C2Nc3ccccc3-n3cccc32)cc1 (configuration not stated)	OVCAR-3 ovarian	F
O=C(CN1CCOCC1)Nc1ccc(Cn2nnc3c2C(=O)c2nnn(Cc4ccc(NC(=O)CN5CCOCC5)cc4)c2C3=O)cc1	OVCAR-3 ovarian	T
NC(CC(=O)O)C(=O)OCc1ccccc1 (configuration not stated)	OVCAR-3 ovarian	F

----------
test system: NCI-H226 lung; assay: NCI-60 one-dose screen, 48 h (100 = growth as untreated, 0 = no growth, -100 = all killed); details: 10 µM unless noted
This is part of a sample that, as a whole, favours compounds with a hit. Of some 83,000 tested, about 20% had one in any assay.
Rule: growth below 60% gives 1 (yes), anything at or above gives 0 (no).

COMPOUND	CATEGORY_LABEL
CN(C)CCOc1ccc(-c2nc3ccc(-c4nc5ccc(N6CCN(C)CC6)cc5[nH]4)cc3[nH]2)cc1	1 (yes)
C[C@H](CCC(=O)O)[C@H]1CC[C@H]2[C@@H]3CC[C@@H]4/C(=C\c5ccco5)C(=O)/C(=C\c5ccco5)C[C@]4(C)[C@H]3CC[C@]12C	0 (no)
CC[C@@H](C)OC(=O)c1nn(C(C)=O)c2ccccc12	0 (no)
c1c2c(cc3c1OCO3)Cc1cc3c(cc1Cc1cc4c(cc1C2)OCO4)OCO3	0 (no)
CC(C)C1=C[C@@]23CC[C@@H]4[C@](C)(CCC[C@@]4(C)C(=O)OCC#CCN4CCCC4)[C@H]2C[C@@H]1[C@H]1C(=O)OC(=O)[C@H]13	0 (no)
CCN(CC)C12CCCCC1(C)C(C#N)(C#N)C(C#N)=C(N)O2 (stereo not drawn)	0 (no)
O=C1C=CC(=O)N1c1ccc(Cc2ccc(N3C(=O)C=CC3=O)cc2)cc1	0 (no)
CCN(CC)CCC(=O)Nc1ccc(Cn2nnc3c2C(=O)c2nnn(Cc4ccc(NC(=O)CCN(CC)CC)cc4)c2C3=O)cc1	1 (yes)
COc1ccc(-n2cc(-c3ccccc3)c3c(SCC(=O)N/N=C/c4ccc([N+](=O)[O-])cc4)ncnc32)cc1	0 (no)
O=C(O)c1cccc2c1-c1ccccc1C2=O	0 (no)
CC(=O)/C(=C/c1cccc(Cl)c1)C(=O)c1ccccc1	0 (no)
COc1c(Cl)cc(Cl)cc1Cl	0 (no)
CCOC(=O)c1c2c(n3ccc(NC(=O)CCN4CCCCC4)cc13)C(=O)c1ncccc1C2=O	0 (no)
O=C(CN1CCN(c2cc3c(cc2F)c(=O)c(C(=O)O)cn3C2CC2)CC1)Nc1nc(-c2ccccc2)cs1	0 (no)
COc1cnc2c(c1)C(=O)c1c-2n(CCCN2CCCC2)c(=O)c2cc([N+](=O)[O-])ccc12	1 (yes)
CCCN(CCC)CN(CCC)CCC	0 (no)
CC/C(Cc1ccccc1)=C(/c1ccc(O)cc1)c1ccc(OCCN2CCCC2)cc1	0 (no)
COc1cccc2c1C(=O)c1c(O)c3c(c(O)c1C2=O)C[C@@](O)(/C(C)=N/NC(=O)c1ccc(Cl)cc1)C[C@@H]3OC1CC(N)C(O)C(C)O1 (stereo partly drawn)	1 (yes)
CC(=O)Nc1ccc2c(c1)c(NC(C)=O)nn2C(=O)Nc1ccc(Cc2ccccc2)cc1	0 (no)
COc1cc(-c2c3sc(=O)[nH]c3nc3c2c(=O)[nH]n3C(C)C)cc2c1OCO2	0 (no)
COc1ccc(C2CC(=O)Nc3c2c(C)nn3-c2nc3ccccc3[nH]2)cc1 (stereo not drawn)	0 (no)
COc1ccc(-c2cc(C(=O)N=Nc3c(O)[nH]c4ccccc34)no2)cc1	0 (no)
Cc1[nH]n(-c2ccccc2)c2nc3nncc3c(-c3ccc(Cl)cc3)c12	0 (no)
O=C1C(=O)N(CCCCn2cc(CO)nn2)c2ccccc21	0 (no)
CC[C@H](Nc1nc(N)nc(C)c1C#N)c1nc2cccc(NCc3ccc(C(=O)NO)cc3)c2c(=O)n1-c1ccccc1	1 (yes)
CC1(C)CC(C(=O)OCCCCCCCCCCC[P+](c2ccccc2)(c2ccccc2)c2ccccc2)C(C)(C)N1O (stereo not drawn)	1 (yes)
CN1CCN(Cc2ccc(NC(=O)c3[nH]ncc3Nc3ncnc4sccc34)cc2)CC1	1 (yes)
CCNS(=O)(=O)c1ncnc2nc[nH]c12	0 (no)
COc1cc2c(cc1O)CCc1cc(O)cc(OC)c1-2	0 (no)
O=C1c2cc3c(cc2-c2c1c1cc(Cl)c(Cl)cc1c(=O)n2CCCn1ccnc1)OCO3	1 (yes)
CN1/C(=C\C=C\C2=[N+](C)c3ccccc3C2(C)C)C(C)(C)c2ccccc21	1 (yes)
CCN(CC)CC(O)c1cc(-c2ccc(Cl)cc2)nc2c(C)c(Cl)ccc12 (stereo not drawn)	1 (yes)
CC/C=C\C[C@H](O)C/C=C1/C(=O)C=C[C@@H]1C/C=C\CCCC(=O)OC(C)C	1 (yes)
Cn1cc(-c2ccc(-c3cn(C)c4ncccc34)[nH]2)c2cccnc21	0 (no)
COc1ccc(-c2nc(Nc3cc(C)[nH]n3)c3ccccc3n2)cc1	1 (yes)
CCN(CC)CCCNc1cc(OC)cc2nc3cc(Cl)ccc3nc12	1 (yes)
CC/C=C\C[C@H](O)C/C=C1/C(=O)C=C[C@@H]1C/C=C\CCCC(=O)NC	1 (yes)
C=CCSc1nnc(-c2ccc(C(C)(C)C)cc2)n1-c1cccc(C(F)(F)F)c1	1 (yes)

----------
tested on: ACHN renal; assay: NCI-60 one-dose screen, 48 h (100 = growth as untreated, 0 = no growth, -100 = all killed); settings: 10 µM unless noted
Compounds without any hit were thinned out: in the full panel of roughly 83,000, 20% have a hit.
OUTCOME_MEASURE: growth (%)

SMILES_ENTRY	OUTCOME_MEASURE	OBSERVED
N#Cc1c2c(nc3n[nH]c(N)c13)CCCC2	growth	101
CSc1nc(NCCO)c(C#N)c(-c2cccc(N)c2)n1	growth	92.3
COc1ccc2nc3cc(Cl)ccc3c(N3CCN(c4nccc(Nc5ccccc5)n4)CC3)c2c1	growth	52.1
O=C1Nc2ccccc2/C1=C/C(=N/c1nnc(-c2ccc(Cl)cc2)s1)c1ccccc1	growth	-71.4
CCOC(=O)c1cnc2cc(Cl)c(F)cc2c1Nc1cccc(NS(C)(=O)=O)c1	growth	93.5
